The following molecules are listed with their measured inhibiting the growth of the microorganism values.
- Tested on: Clostridium tyrobutyricum (ATCC 25755)
- assay_explanation: Growth of Clostridium tyrobutyricum in batch culture (absorbance at 600 nm)
- Assay type: cell-based
- details: 1 g/L phenolic compound in medium, vs control with no phenolic compound; FIG. 3
assay_readout: inhibiting the growth of the microorganism (%)

COc1cc(C=O)cc(OC)c1O	30
COc1cc(/C=C/C(=O)O)ccc1O	74
COc1cc(C(=O)O)ccc1O	48
O=C(O)/C=C/c1ccc(O)cc1	99
